target: human Nectin-4 (protein used in the SPR affinity measurements) (human) (UniProt Q96NY8); test: SPR, human IgG1
Sequence (Q96NY8 32-349 limits assumed): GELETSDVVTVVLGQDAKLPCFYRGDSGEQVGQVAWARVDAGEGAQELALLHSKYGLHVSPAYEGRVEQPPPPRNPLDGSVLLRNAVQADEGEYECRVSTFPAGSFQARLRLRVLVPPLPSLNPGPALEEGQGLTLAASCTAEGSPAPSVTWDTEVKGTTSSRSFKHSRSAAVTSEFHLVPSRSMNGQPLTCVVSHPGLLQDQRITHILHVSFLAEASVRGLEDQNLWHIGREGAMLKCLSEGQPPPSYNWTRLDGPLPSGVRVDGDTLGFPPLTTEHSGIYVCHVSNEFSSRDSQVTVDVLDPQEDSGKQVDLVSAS

| binder | koff (s⁻¹) |
| --- | --- |
| H1L0 (antibody, human IgG1, V domains shown, human IgG1 isotype) VH: QVQLVQSGAEVKKPGASVKVSCKASGYTFTSYWMHWVRQAPGQGLEWMGEIDPSDSYTNYNQKFKGRVTMTLDTSTSTTYMELSSLRSEDTAVYYCARGYGNYGDYWGQGTLVTVSS VL: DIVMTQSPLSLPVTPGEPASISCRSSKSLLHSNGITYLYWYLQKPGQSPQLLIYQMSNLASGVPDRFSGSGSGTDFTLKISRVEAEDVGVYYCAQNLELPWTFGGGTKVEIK | 0.0072 |
| H6L3 (antibody, human IgG1, V domains shown, human IgG1 isotype) VH: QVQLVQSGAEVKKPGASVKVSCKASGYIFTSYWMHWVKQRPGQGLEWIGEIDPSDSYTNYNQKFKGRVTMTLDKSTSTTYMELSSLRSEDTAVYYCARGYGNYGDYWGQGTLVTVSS VL: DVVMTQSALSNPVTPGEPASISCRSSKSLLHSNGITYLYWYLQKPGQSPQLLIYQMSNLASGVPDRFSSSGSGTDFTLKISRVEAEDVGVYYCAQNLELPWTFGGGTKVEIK | 0.0051 |
| H6L2 (antibody, human IgG1, V domains shown, human IgG1 isotype) VH: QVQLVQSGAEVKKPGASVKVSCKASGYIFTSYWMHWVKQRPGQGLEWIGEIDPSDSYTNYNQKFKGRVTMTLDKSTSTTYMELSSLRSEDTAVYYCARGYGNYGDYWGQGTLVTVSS VL: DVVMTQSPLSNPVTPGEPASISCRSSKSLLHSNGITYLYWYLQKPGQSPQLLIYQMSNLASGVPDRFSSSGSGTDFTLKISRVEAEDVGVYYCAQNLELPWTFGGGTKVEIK | 0.0058 |

Measured values drawn from patent US20250297004A1 for this set.
